Numbers sourced from patent US20220162261A1.

target: T1, mouse α4β7 integrin on TK1 cells (mouse, UniProt Q00651 41-1039; P26011 20-806); assay: TK1 cell adhesion to MAdCAM-1
T1 construct: whole, on cells; also called α4β7 cell (Mu); Cell Adhesion α4β7 Mouse
T1 sequence (Q00651 41-1039, chain 1 of 2): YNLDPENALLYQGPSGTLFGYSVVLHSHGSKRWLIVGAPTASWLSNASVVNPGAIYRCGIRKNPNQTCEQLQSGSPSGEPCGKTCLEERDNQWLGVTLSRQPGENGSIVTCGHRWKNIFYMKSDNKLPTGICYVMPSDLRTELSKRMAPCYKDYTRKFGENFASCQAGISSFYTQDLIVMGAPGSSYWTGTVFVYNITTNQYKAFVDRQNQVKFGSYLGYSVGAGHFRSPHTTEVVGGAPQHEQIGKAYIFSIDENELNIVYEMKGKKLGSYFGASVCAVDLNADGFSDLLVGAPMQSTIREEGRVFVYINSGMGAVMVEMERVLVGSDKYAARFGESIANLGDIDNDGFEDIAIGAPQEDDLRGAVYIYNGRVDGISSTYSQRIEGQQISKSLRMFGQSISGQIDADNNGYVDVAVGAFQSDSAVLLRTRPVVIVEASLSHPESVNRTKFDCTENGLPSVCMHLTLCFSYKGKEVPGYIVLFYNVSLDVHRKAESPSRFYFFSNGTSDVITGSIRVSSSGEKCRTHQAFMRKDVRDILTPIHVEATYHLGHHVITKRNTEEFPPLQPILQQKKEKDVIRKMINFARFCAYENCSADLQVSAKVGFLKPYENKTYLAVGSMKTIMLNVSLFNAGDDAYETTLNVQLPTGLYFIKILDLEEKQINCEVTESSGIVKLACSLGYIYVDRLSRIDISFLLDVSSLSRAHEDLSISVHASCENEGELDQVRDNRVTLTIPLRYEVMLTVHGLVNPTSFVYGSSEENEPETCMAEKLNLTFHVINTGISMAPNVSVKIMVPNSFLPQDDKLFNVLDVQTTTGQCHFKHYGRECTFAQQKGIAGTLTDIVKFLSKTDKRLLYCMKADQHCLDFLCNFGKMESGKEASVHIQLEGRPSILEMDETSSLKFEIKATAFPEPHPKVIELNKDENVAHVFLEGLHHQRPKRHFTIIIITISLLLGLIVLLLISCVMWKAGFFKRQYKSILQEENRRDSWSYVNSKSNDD
T1 sequence (P26011 20-806, chain 2 of 2): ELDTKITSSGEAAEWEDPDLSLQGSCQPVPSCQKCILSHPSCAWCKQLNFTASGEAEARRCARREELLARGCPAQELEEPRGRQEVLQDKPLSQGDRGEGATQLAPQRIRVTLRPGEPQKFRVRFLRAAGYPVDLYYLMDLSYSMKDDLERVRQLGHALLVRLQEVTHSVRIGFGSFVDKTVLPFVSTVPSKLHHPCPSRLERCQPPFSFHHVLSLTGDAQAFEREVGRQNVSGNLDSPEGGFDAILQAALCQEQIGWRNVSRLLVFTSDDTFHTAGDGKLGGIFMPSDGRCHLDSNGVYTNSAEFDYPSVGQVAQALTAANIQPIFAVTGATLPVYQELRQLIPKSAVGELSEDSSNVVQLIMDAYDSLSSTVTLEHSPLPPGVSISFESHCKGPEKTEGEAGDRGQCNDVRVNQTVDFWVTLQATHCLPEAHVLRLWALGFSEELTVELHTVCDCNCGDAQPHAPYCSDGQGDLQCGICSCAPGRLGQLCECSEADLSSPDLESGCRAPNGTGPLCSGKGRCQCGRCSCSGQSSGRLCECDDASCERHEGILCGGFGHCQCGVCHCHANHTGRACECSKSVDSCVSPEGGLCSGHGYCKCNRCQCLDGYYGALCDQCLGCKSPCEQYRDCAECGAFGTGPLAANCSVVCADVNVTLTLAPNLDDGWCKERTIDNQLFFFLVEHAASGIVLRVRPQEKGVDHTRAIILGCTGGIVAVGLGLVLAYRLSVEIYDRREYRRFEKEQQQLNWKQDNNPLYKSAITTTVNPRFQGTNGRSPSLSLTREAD
pIC50: −log10 of the molar value. Bridge positions count the residues as written; N and C are the ends. Square brackets hold non-standard residues; d marks the D form. Phe(4-tBu) = CC(C)(C)c1ccc(C[C@H](N)C(=O)O)cc1; NMeR = CN[C@@H](CCCNC(=N)N)C(=O)O; β3hE = N[C@@H](CCC(=O)O)CC(=O)O; NMeK = CN[C@@H](CCCCN)C(=O)O; Pen = CC(C)(S)[C@H](N)C(=O)O

| binder | pIC50 |
| --- | --- |
| Ac-[Pen][NMeR]SDTL[Pen][Phe(4-tBu)][β3hE][NMeK]-NH2 (disulfide 1-7; not fully specified (residue 10); printed as (Ac Pen N-Me-R S D T L Pen F(4-tBu) b-H-E N-Me-K NH2)2 DIG, disulfide Pen-Pen; also: homodimer (…)2 DIG via Lys10 NZ) [SEQ ID NO: 149] | ≥ 8.00 |
| XRSDTLXWE (Ac Pen N-Me-R S D T L Pen W b-H-E OH; disulfide Pen-Pen) [SEQ ID NO: 146] | < 7.30 |
| Ac-[Pen][NMeR]SDTL[Pen][Phe(4-tBu)][β3hE][dK]-NH2 (disulfide 1-7; SMILES CC(=O)N[C@@H]1C(=O)N(C)[C@@H](CCCNC(=N)N)C(=O)N[C@@H](CO)C(=O)N[C@@H](CC(=O)O)C(=O)N[C@@H]([C@@H](C)O)C(=O)N[C@@H](CC(C)C)C(=O)N[C@H](C(=O)N[C@@H](Cc2ccc(C(C)(C)C)cc2)C(=O)N[C@@H](CCC(=O)O)CC(=O)N[C@H](CCCCN)C(N)=O)C(C)(C)SSC1(C)C) [SEQ ID NO: 153] | < 8.00 |
